- Test target: HIV-1 Env of strain SC422661.8 (HIV-1)
- Assay protocol: cell-based or functional assay
Measured neutralization IC50 of individual entries
Quick reminder: number only, in mg/L, skip the unit.

These recorded examples may help you get a feel for the data.
NIH45-46 G54M IgG (antibody, name in Kabat numbering, V domains shown) VH: QVRLSQSGGQMKKPGESMRLSCRASGYEFLNCPINWIRLAPGRRPEWMGWLKPRMGAVNYARKFQGRVTMTRDVYSDTAFLELRSLTSDDTAVYFCTRGKYCTARDYYNWDFEHWGRGAPVTVSS VL: EIVLTQSPATLSLSPGETAIISCRTSQSGSLAWYQQRPGQAPRLVIYSGSTRAAGIPDRFSGSRWGADYNLSISNLESGDFGVYYCQQYEFFGQGTKVQVDI; 0.06
NIH45-46 G54L IgG (antibody, name in Kabat numbering, V domains shown) VH: QVRLSQSGGQMKKPGESMRLSCRASGYEFLNCPINWIRLAPGRRPEWMGWLKPRLGAVNYARKFQGRVTMTRDVYSDTAFLELRSLTSDDTAVYFCTRGKYCTARDYYNWDFEHWGRGAPVTVSS VL: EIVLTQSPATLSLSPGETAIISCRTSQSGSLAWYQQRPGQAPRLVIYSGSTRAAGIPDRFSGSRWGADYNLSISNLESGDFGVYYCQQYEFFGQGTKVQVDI; 0.1

Shifting focus to the binder that follows.
**Query** Could you share which neutralization IC50 value was measured for NIH45-46 G54H IgG (antibody, name in Kabat numbering, V domains shown) VH: QVRLSQSGGQMKKPGESMRLSCRASGYEFLNCPINWIRLAPGRRPEWMGWLKPRHGAVNYARKFQGRVTMTRDVYSDTAFLELRSLTSDDTAVYFCTRGKYCTARDYYNWDFEHWGRGAPVTVSS VL: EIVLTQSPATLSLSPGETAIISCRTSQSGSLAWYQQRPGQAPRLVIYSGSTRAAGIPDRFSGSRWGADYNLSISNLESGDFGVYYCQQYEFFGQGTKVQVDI ?
**Result** 0.09
